Test: Metabolic stability in human hepatic microsome
Type: in vitro ADME
Settings: microsomes, pH 7.4; human hepatic microsome, NADPH(+); read-out: CL NADPH(+)
Starred links: 1 amine or outer side, 2 acyl side, 3 side chain; linkers in the order of their positions; H or OH if unused. Positions of bridges follow the written chain, without caps; N, C: chain ends. Non-standard residues stand in square brackets, D forms with d. Residues, ends and D or L forms follow the SMILES beside them. *: point of attachment. Phe(4-(CH2)5CO) = O=C([C@H](Cc1ccc(CCCCCC(=O)[*:3])cc1)N[*:1])[*:2]; Phe(4-CF3) = N[C@@H](Cc1ccc(C(F)(F)F)cc1)C(=O)O; NMeF = CN[C@@H](Cc1ccccc1)C(=O)O; NMeI = CC[C@H](C)[C@H](NC)C(=O)O; NMeβAla = CN(CCC(=O)[*:2])[*:1]; NMeL = CN[C@@H](CC(C)C)C(=O)O; NMeV = CN[C@H](C(=O)O)C(C)C; NMeA = CN[C@@H](C)C(=O)O; Piperidide = C1CCN(*)CC1; β3hA = C[C@H](N)CC(=O)O; Sar = CNCC(=O)O; tBu = CC(C)(C)*
readout_label: microsomal CLint at 1 uM (µL/min/mg)
Numbers only, in µL/min/mg.

# annotated cases, reported microsomal CLint at 1 uM shown
{"compound": "CC[C@H](C)[C@H]1C(=O)N[C@@H](COC(C)(C)C)C(=O)N[C@H](C(=O)N2CCCCC2)Cc2ccc(cc2)CCCCCC(=O)N(C)[C@@H](Cc2ccccc2)C(=O)N(C)CC(=O)N(C)[C@@H](CC(C)C)C(=O)N[C@@H]([C@@H](C)O)C(=O)N(C)[C@@H](C)C(=O)N(C)[C@@H](CC(C)C)C(=O)N1C [DP-832] ([NMeF][Sar][NMeL]T[NMeA][NMeL][NMeI]S(tBu)[Phe(4-(CH2)5CO)]-Piperidide; lactam N-9)", "microsomal CLint at 1 uM [µL/min/mg]": 850}
{"compound": "CC[C@H](C)[C@@H]1NC(=O)[C@H](CC(C)C)N(C)C(=O)[C@H](C)NC(=O)CN(C)C(=O)[C@H](Cc2ccc(C(F)(F)F)cc2)NC(=O)[C@H]([C@@H](C)O)NC(=O)[C@H](CC(C)C)N(C)C(=O)CCN(C)C(=O)C[C@H](C)NC(=O)[C@H](CC(C)C)N(C)C(=O)[C@H](CC(C)C)N(C)C1=O [DP-805] (cyclo(A[NMeL]I[NMeL][NMeL][β3hA][NMeβAla][NMeL]T[Phe(4-CF3)][Sar]))", "microsomal CLint at 1 uM [µL/min/mg]": 169}
{"compound": "CC(C)C[C@H]1C(=O)N[C@@H](COC(C)(C)C)C(=O)N(C)[C@@H](Cc2ccccc2)C(=O)N(C)[C@@H](C)C(=O)N[C@@H](Cc2ccccc2)C(=O)N(C)[C@@H](C(C)C)C(=O)N[C@H](C(=O)N2CCCCC2)Cc2ccc(cc2)CCCCCC(=O)N[C@@H]([C@@H](C)O)C(=O)NCC(=O)N1C [DP-848] (TG[NMeL]S(tBu)[NMeF][NMeA]F[NMeV][Phe(4-(CH2)5CO)]-Piperidide; lactam N-9)", "microsomal CLint at 1 uM [µL/min/mg]": 148}
{"compound": "CC[C@H](C)[C@H]1C(=O)N[C@H](C(=O)N2CCCCC2)Cc2ccc(cc2)CCCCCC(=O)N[C@@H]([C@@H](C)O)C(=O)N(C)[C@@H](Cc2ccccc2)C(=O)N[C@@H](CC(C)C)C(=O)N2CCC[C@H]2C(=O)N[C@@H](C(C)C)C(=O)N[C@@H](Cc2ccccc2)C(=O)N(C)CC(=O)N[C@@H](CC(C)C)C(=O)N[C@@H](C)C(=O)N1C [DP-878] (T[NMeF]LPVF[Sar]LA[NMeI][Phe(4-(CH2)5CO)]-Piperidide; lactam N-11)", "microsomal CLint at 1 uM [µL/min/mg]": 152}
{"compound": "CC(C)C[C@H]1C(=O)N[C@H](C(=O)N(C)[C@@H](Cc2ccccc2)C(=O)N(C)[C@@H](Cc2ccccc2)C(=O)N[C@@H](C)C(=O)N2CCCCC2)CC(=O)N[C@H](C)C(=O)N(C)[C@@H](C)C(=O)N(C)[C@@H](Cc2ccccc2)C(=O)N(C)[C@@H](CC(C)C)C(=O)N[C@@H]([C@@H](C)O)C(=O)N(C)[C@@H](C)C(=O)N(C)[C@@H](CC(C)C)C(=O)N[C@@H](C(C)C)C(=O)N1C [DP-204] ([dA][NMeA][NMeF][NMeL]T[NMeA][NMeL]V[NMeL]D[NMeF][NMeF]A-Piperidide; lactam N-10)", "microsomal CLint at 1 uM [µL/min/mg]": 48}
{"compound": "CC[C@H](C)[C@@H]1NC(=O)[C@H](CC(C)C)N(C)C(=O)[C@H](Cc2ccccc2)N(C)C(=O)[C@H](CC(C)C)NC(=O)CCCCCc2ccc(cc2)C[C@@H](C(=O)N2CCCCC2)NC(=O)[C@H](C)N(C)C(=O)[C@H](C)N(C)C(=O)CN(C)C(=O)[C@H]([C@@H](C)O)NC(=O)[C@H](Cc2ccccc2)N(C)C(=O)[C@H](C(C)C)N(C)C1=O [DP-875] (L[NMeF][NMeL]I[NMeV][NMeF]T[Sar][NMeA][NMeA][Phe(4-(CH2)5CO)]-Piperidide; lactam N-11)", "microsomal CLint at 1 uM [µL/min/mg]": 34}

We now examine a further compound.
Recorded microsomal CLint at 1 uM for CC(C)C[C@H]1C(=O)N[C@@H]([C@@H](C)O)C(=O)N(C)[C@@H](C)C(=O)N(C)[C@@H](CC(C)C)C(=O)N[C@H](C(=O)N(C)[C@@H](Cc2ccccc2)C(=O)N[C@@H](C)C(=O)N2CCCCC2)CC(=O)N(C)CCC(=O)N(C)[C@@H](Cc2ccccc2)C(=O)N(C)[C@@H](C(C)C)C(=O)N[C@@H](C(C)C)C(=O)N1C [DP-358] ([NMeβAla][NMeF][NMeV]V[NMeL]T[NMeA][NMeL]D[NMeF]A-Piperidide; lactam N-9) , please? 82
